- Organism: Rattus norvegicus
- Test Method Notes: DrugMatrix - Regimen: Daily Repeat
- Format: toxicity, organism-based, Sprague-Dawley
- Design: regimen Daily Repeat, gender Male, age 6-8 weeks
- Test Parameters: in vivo, po, 0 mg/kg, 120 h, tissue Blood, route oral GAVAGE, dose level Control, time 5 day, vehicle 100 % WATER
A collection of compounds and their measured ABSOLUTE BASOPHIL
Experimental Endpoint: ABSOLUTE BASOPHIL (CELLS/uL)

- Cc1c(N(C)CS(=O)(=O)[O-])c(=O)n(-c2ccccc2)n1C.[Na+] [DIPYRONE SODIUM]: 0
- CC[C@H]1OC(=O)[C@H](C)[C@@H](O[C@H]2C[C@@](C)(OC)[C@@H](O)[C@H](C)O2)[C@H](C)[C@@H](O[C@@H]2O[C@H](C)C[C@H](N(C)C)[C@H]2O)[C@](C)(OC)C[C@@H](C)C(=O)[C@H](C)[C@@H](O)[C@]1(C)O: 0
- CNS(=O)(=O)Cc1ccc2[nH]cc(CCN(C)C)c2c1: 0
